Task for the reader: assign each of the following molecules its reported nuclei count.
test: inhibitors of E-selectin induction by TNFa, primary screen, imaging, HUVEC, immunofluorescence, MLSMR starter and 10KST1 sets (AID 487); settings: HUVEC TNFalpha-induced E-selectin immunofluorescence imaging, at 2 µM; measured here: cell number, toxicity;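 further: 100% = median nuclei count of all wells on the same plate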
Give bare numbers, in %.

Example entries and their recorded answers appear below.
>>> recorded_measurement("S=c1[nH]nc(-c2ccco2)n1C1CCCCC1")
143
>>> recorded_measurement("C=CCn1c(-c2ccc(OC)cc2)nc2ccccc21")
86.4
>>> recorded_measurement("CCOc1ccccc1C(=O)N1CCN(c2cccc(Cl)c2)CC1")
104
>>> recorded_measurement("O=C(CCOc1ccccc1)NCc1ccccc1")
114
>>> recorded_measurement("O=C(COc1ccc(-c2nnc(N3CCCCC3)c3ccccc23)cc1)N1CCCCC1")
89.7

Parameters: items (list). Returns: nuclei count for each item.
1. O=C1C(=O)N(Cc2cccnc2)C(c2ccccn2)/C1=C(/O)c1ccc(Br)cc1 (configuration not stated)
2. CCOC(=O)CNC(=O)CSc1nc(N)cc(N)n1
3. Cc1nn(CCO)c2c1C(=O)CCC2
4. O=C(NCc1ccco1)c1ccccc1Nc1ccc(F)cc1
5. COc1ccc(OC)c(NC(=O)C2C3CC4OC(=O)C2C4C3)c1 (configuration not stated)
6. CSc1nncc(=O)[nH]1
7. Cc1ccc(-c2nn(CCC(=O)NCC3CCCO3)c(=O)c3ccccc23)cc1 (configuration not stated)

Data returned:
[156, 108, 166, 103, 114, 160, 155]

Source of measurements: PubChem BioAssay
